Known pEC50 of a selection of molecules
TARGET_SYSTEM: α7^L131G-5HT3 HC (Homo sapiens, UniProt P36544, L131G, form not given)
Construct: rows headed: Agonist potency; other: α75HT3 L131G HC; α75HT3 L131G HC; fused on or other part: 5-HT3A receptor ion pore domain at the C-terminus
Sequence (P36544 23-224 L131G limits assumed, form open): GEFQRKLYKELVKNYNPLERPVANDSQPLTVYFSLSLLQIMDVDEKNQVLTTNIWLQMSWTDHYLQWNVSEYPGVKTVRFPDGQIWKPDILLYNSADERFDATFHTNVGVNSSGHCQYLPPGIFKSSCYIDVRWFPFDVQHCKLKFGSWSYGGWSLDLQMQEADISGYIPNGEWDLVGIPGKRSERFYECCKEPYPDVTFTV
ASSAY_NAME: Agonist potency at chimeric channel (Table 9)
Assay type: cell-based
CONDITION_SUMMARY: read-out: Agonist potency
Bear in mind: pEC50 is minus log10 of a mol/L concentration; give just that figure.

O=c1cccc2n1C[C@@H]1CNC[C@H]2C1: 4.96

# context switch: different molecule, same pEC50
[Q] State its pEC50: O=C(NC1CN2CCC1CC2)c1ccc(Cl)cc1 (centres unmarked)
[A] 7.48

* * *

Known pEC50 of a selection of compounds
TARGET_SYSTEM: α7^G175K-GlyR (Homo sapiens, UniProt P36544, G175K)
Construct: expressed in transfected cells
Sequence (P36544 with tags, fused parts or gaps G175K): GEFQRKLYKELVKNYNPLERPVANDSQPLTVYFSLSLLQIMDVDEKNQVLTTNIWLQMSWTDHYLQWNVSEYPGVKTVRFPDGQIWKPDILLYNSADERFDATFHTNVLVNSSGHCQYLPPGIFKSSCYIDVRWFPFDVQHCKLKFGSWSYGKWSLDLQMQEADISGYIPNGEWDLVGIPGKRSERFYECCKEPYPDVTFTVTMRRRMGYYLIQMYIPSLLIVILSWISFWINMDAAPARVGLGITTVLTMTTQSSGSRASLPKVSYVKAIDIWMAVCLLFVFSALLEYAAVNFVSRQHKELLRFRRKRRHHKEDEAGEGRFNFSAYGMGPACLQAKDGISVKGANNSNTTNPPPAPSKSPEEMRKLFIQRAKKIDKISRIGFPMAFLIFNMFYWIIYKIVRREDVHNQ
ASSAY_NAME: Agonist potency at chimeric channel
Format: cell-based
Bear in mind: pEC50 is minus log10 of a mol/L concentration; give just that figure.

Sample records with pEC50:
Clc1ccc(C2CC3CCC2N3)cn1 (stereo not drawn) [Epibatidine]: 8.30
O=c1cccc2n1C[C@@H]1CNC[C@H]2C1: 6.40

[Q] State its pEC50: O=C(NC1CN2CCC1CC2)c1ccc(Cl)cc1 (stereo not drawn)
[A] 8.30

* * *

TARGET_SYSTEM: α7^W77F,Q79G,G175K-GlyR (Homo sapiens, UniProt P36544, G175K/Q79G/W77F)
Construct: expressed in transfected cells
Sequence (P36544 with tags, fused parts or gaps W77F/Q79G/G175K): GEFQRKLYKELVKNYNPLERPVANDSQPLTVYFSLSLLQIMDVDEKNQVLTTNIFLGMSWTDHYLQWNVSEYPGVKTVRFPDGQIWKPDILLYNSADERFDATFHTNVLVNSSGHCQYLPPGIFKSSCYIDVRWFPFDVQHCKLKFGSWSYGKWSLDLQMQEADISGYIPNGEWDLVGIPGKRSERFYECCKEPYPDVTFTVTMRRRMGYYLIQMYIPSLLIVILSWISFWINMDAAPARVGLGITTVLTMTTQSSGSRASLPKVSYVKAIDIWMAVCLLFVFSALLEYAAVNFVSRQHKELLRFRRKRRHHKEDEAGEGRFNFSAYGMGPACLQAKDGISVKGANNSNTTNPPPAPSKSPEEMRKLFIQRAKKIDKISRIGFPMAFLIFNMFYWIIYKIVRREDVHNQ
ASSAY_NAME: Agonist potency at chimeric channel
Type: cell-based
MEASURE: pEC50
Bear in mind: pEC50 is minus log10 of a mol/L concentration; give just that figure.

Sample records with pEC50:
Clc1ccc(C2CC3CCC2N3)cn1 (stereo not drawn) [Epibatidine]: 5.59
O=C(NC1CN2CCC1CC2)c1ccc(Cl)cc1 (stereo not drawn): 6.30

[Q] Give pEC50 for `O=c1cccc2n1C[C@@H]1CNC[C@H]2C1` tested on α7^W77F,Q79G,G175K-GlyR (Homo sapiens, UniProt P36544, G175K/Q79G/W77F).
[A] 5.16

* * *

Known EC50 of a selection of compounds
TARGET_SYSTEM: α7^P216I-GlyR (Homo sapiens, UniProt P36544, P216I)
Sequence (P36544 with tags, fused parts or gaps P216I): as the sequence (P36544 with tags, fused parts or gaps G175K) above, with K153G, P194I counted along it
ASSAY_NAME: Agonist potency at chimeric channel
Write the number in nM without appending the unit.

Clc1ccc(C2CC3CCC2N3)cn1 (centres unmarked) [Epibatidine]: 30

[Q] State its EC50: O=C(NC1CN2CCC1CC2)c1ccc(Cl)cc1 (centres unmarked)
[A] 40

* * *

TARGET_SYSTEM: α7^L131G,Q139L,Y217F-GlyR (Homo sapiens, UniProt P36544, L131G/Q139L/Y217F)
Sequence (P36544 with tags, fused parts or gaps L131G/Q139L/Y217F): as the sequence (P36544 with tags, fused parts or gaps W77F/Q79G/G175K) above, with F55W, G57Q, L109G, Q117L, K153G, Y195F counted along it
ASSAY_NAME: cell-based
MEASURE: EC50 (nM)
Write the number in nM without appending the unit.

Clc1ccc(C2CC3CCC2N3)cn1 (centres unmarked) [Epibatidine]: 21

# context switch: different compound, same EC50
[Q] State its EC50: O=C(NC1CN2CCC1CC2)c1ccc(Cl)cc1 (centres unmarked)
[A] 160

* * *

TARGET_SYSTEM: α7-5HT3 (Homo sapiens, UniProt P36544, M226I/T225I)
Construct: expressed in transfected cells; host or cells: HEK cells
Sequence (P36544 with tags, fused parts or gaps T225I/M226I): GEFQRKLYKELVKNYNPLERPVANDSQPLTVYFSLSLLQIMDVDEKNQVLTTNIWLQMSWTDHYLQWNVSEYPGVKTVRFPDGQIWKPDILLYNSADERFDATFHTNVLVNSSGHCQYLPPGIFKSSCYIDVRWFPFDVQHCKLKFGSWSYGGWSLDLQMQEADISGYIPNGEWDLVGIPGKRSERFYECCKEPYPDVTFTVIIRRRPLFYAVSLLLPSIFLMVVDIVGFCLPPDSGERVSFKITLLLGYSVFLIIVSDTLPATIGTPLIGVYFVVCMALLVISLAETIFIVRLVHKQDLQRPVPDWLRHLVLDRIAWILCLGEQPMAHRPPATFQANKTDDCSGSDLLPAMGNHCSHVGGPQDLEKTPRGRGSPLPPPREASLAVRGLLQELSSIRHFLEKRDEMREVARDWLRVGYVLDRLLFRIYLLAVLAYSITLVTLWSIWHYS
ASSAY_NAME: Agonist potency (EC50), HEK cells expressing chimeric channel
Assay type: cell-based, human α7 nAChR LBD, murine 5HT3 IPD
CONDITION_SUMMARY: HEK cells; Table 1; read-out: Mean EC50, α7-5HT3
MEASURE: pEC50
Bear in mind: pEC50 is minus log10 of a mol/L concentration; give just that figure.

[Q] State its pEC50: Cn1cc(C(=O)C(=O)NC2CN3CCC2CC3)c2ccccc21 (stereo not shown)
[A] 5.00
